- target under test: Mu-type opioid receptor (Homo sapiens)
- Sequence (P35372 whole entry): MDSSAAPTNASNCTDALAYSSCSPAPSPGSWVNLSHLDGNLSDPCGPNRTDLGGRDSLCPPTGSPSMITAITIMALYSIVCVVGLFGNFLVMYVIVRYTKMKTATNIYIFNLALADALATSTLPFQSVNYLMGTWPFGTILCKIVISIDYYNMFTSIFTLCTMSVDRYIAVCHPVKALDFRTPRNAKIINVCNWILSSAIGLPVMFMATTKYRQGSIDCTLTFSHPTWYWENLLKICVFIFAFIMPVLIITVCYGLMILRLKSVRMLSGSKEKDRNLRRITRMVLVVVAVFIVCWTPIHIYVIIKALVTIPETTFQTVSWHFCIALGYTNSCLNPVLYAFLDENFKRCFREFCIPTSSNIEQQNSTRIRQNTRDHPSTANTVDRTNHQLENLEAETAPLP
- assay method text: Antagonist activity at human mu opioid receptor expressed in CHO cell membrane assessed as inhibition of DAMGO induced [35S]GTP-gamma-S binding
For each record, write down the corresponding IC50.
Numbers only, in nM.

• COc1ccc(-c2ccc(CCNC(=O)c3ccc4c(c3)[C@@]3(C)CCN(CC5CC5)C(C4)[C@@H]3C)cc2)cc1 = 24
• C[C@H]1C2Cc3ccc(C(=O)NCCCc4ccc5ccccc5c4)cc3[C@@]1(C)CCN2CC1CC1 = 320

Qu. Assign IC50 to the following record: C[C@H]1C2Cc3ccc(C(=O)NCCc4cccc(Br)c4)cc3[C@@]1(C)CCN2CC1CC1
Ans. 230
